Listed here: items and their measured self-cleavage.
B1: HDV Ribozyme (parent)
chain: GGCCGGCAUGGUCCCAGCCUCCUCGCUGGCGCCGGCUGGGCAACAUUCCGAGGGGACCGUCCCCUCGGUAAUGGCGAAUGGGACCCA

# Variants of: B1
# assay-procedure: self-cleavage, relative activity (ratio to wild type); higher = more cleavage; co-transcriptional
recorded-endpoint: self-cleavage

INSERT INTO measurements (var, result) VALUES
  ('U27G G53U', 0.923),
  ('C33A A70G', 0.198),
  ('C14U A78C', 0.237),
  ('A51G U65A', 0.7),
  ('U9C G82C', 0.262),
  ('C41G C58U', 0.746),
  ('G2C U79A', 0.133),
  ('C22U G28C', 0),
  ('U23A A78C', 0.219),
  ('G17U C33A', 0.143),
  ('G31A G38U', 0.0702),
  ('C18A C26G', 0.119),
  ('C24U G25A', 0.181),
  ('C21G C33G', 0.101),
  ('C3U C63G', 0.572),
  ('C18A C61G', 0.172),
  ('U23C U69A', 0.8),
  ('G5A G25U', 0.0339),
  ('G1A A42C', 0.0369),
  ('G1U C48U', 0.415),
  ('A45C G80U', 0.0678),
  ('G11A G40A', 0.582);
